Cited source: patent US20260242735A1

Recorded Mean % WT Binding values for a group of binders are listed next.
Molecular target: human CD33 Q24A (human, UniProt P20138 18-364)
Sequence (P20138 18-364 Q24A limits assumed): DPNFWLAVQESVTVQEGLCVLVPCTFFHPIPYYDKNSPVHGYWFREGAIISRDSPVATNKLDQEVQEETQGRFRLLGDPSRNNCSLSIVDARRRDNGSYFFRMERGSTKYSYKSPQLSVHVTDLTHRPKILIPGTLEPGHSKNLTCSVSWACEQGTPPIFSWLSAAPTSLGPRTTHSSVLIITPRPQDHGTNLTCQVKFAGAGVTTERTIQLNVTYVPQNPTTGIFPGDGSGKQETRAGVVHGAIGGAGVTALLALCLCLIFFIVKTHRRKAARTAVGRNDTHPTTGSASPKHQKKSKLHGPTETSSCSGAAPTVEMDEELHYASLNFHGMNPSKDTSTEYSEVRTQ
Experiment: alanine scan, flow cytometry;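 note: HEK293-T cells transiently expressing single-residue alanine mutants of CD33 (alanine swapped to serine), antibody binding read by fluorescence in duplicate, background-subtracted, expressed relative to wild-type CD33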
# unit: % WT | format: bare number

Refmab #3 (antibody, V domains shown, Full-length format is human IgG1 Fc silent (PG-LALA); The alanine scan used IgG or Fab) VH: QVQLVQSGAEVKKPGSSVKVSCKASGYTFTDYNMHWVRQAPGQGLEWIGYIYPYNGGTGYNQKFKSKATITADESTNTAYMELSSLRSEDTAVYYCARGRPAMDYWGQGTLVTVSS VL: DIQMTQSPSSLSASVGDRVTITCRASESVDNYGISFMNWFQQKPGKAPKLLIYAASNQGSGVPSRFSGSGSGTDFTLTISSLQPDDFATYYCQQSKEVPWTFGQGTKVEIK
101
Refmab #4 (antibody, V domains shown, Full-length format is human IgG1 Fc silent (PG-LALA); The alanine scan used IgG or Fab) VH: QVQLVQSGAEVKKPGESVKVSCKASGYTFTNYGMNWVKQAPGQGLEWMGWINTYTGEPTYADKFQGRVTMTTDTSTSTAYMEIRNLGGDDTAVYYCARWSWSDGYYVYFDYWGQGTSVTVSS VL: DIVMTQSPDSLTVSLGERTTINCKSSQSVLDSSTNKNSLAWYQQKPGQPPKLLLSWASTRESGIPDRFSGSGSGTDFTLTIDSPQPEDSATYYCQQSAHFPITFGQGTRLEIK
68.3
Refmab #1 (antibody, V domains shown, Full-length format is human IgG1 (Absolute Antibody Ab00283-10.0); The alanine scan used IgG or Fab; also called hP67.6) VH: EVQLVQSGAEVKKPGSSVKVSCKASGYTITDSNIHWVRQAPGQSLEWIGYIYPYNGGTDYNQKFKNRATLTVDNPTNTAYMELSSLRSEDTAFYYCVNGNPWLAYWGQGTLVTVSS VL: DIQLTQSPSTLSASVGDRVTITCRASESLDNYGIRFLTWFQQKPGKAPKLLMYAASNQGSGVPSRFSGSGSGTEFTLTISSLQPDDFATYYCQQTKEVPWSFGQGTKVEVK
74.1

Consider the record given below.
Supply recorded Mean % WT Binding for Refmab #2 (antibody, V domains shown, Full-length format is human IgG1 Fc silent (PG-LALA); The alanine scan used IgG or Fab) VH: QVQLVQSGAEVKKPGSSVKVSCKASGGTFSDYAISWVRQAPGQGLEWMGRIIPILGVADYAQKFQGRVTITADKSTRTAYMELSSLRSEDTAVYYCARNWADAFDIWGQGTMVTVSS VL: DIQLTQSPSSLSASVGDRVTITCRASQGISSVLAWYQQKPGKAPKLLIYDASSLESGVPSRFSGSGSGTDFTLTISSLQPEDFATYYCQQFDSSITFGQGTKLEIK here.
103
